- Test system: Mycobacterium tuberculosis
- assay_name: Antimycobacterial activity against Mycobacterium tuberculosis H37Rv ATCC 27294 culture in GAST media after 7 days by microplate alamar blue assay
- Assay type: functional
- measurement_conditions: H37Rv ATCC 27294, 168 h
assay_endpoint: log10 MIC90 (log10 of the value in µM)
Could you please treat all values as log10 of MIC90 in µM?

Input line: Please give the measured log10 MIC90 for this molecule: "O=C(OCc1ccccc1)[C@@H]1CSC(c2ccccc2)=N1"
Output line: 0.54

Input line: Now the molecule "CCOC(=O)c1csc(-c2cccc(C(F)(F)F)c2)n1"
Output line: 1.79

Input line: Now the molecule "CCOC(=O)c1c(-c2ccccc2)nc2ccccn12"
Output line: 1.83

Input line: Now the molecule "CCOC(=O)c1c(C)nc2cc(C)ccn12"
Output line: 1.81

Input line: Now the molecule "O=C(NC1CCCCC1)c1coc(-c2ccccc2)n1"
Output line: 1.48

Input line: Now the molecule "O=C(OCc1ccccc1)c1csc(-c2ccccc2)n1"
Output line: 0.79

Input line: Now the molecule "CCCCCCNC(=O)[C@@H]1CSC(c2ccccc2)=N1"
Output line: 1.76

Input line: Now the molecule "O=C(OCc1ccccc1)c1coc(-c2ccccc2)n1"
Output line: -0.31

Input line: Now the molecule "O=C(OCc1ccccc1)[C@@H]1COC(c2ccccc2)=N1"
Output line: 0.64

Input line: Now the molecule "O=C(NC1CCCCC1)c1csc(-c2ccccc2)n1"
Output line: 1.18

----------
Overview of recorded remaining at 0.25 h, 20 µM for various molecules
- assay_name: Metabolic stability in Sprague-Dawley rat liver microsomes assessed as compound remaining at 20 uM after 15 mins by LC/MS analysis
- Type: ADME, Microsome
- measurement_conditions: read-out: Stability
State the answer as a number, implicitly in %.

// worked examples, remaining at 0.25 h, 20 µM included
CCC(C)c1ccccc1OC(=O)c1coc(-c2ccccc2)n1 (stereo unspecified) ... 8.3
O=C(OCc1ccccc1C(F)(F)F)c1coc(-c2ccccc2)n1 ... 7.8
CCCCCCCCOC(=O)c1coc(-c2ccccc2)n1 ... 13.1

Next:
Input line: Please give the measured remaining at 0.25 h, 20 µM for this molecule: "COc1cccc(CNC(=O)c2c(C)nc3cc(C)ccn23)c1"
Output line: 94

----------
- Tested on: Mycobacterium tuberculosis
- assay_name: Antimycobacterial activity against drug-sensitive Mycobacterium tuberculosis isolate 2 after 14 days
- Type: functional
- measurement_conditions: isolate 2, 336 h
assay_endpoint: MIC90 (µM)
State the answer as a number, implicitly in µM.

O=C(OCc1ccccc1)c1csc(-c2ccccc2)n1 ... 8.5

Next:
Input line: Please give the measured MIC90 for this compound: "O=C(OCc1ccccc1)c1coc(-c2ccccc2)n1"
Output line: 2.2

----------
- assay_name: Chemical stability in simulated gastric fluid assessed as compound remaining at 50 uM after 15 mins by LC/MS analysis
- Format: physicochemical
- measurement_conditions: read-out: Stability
Overview of recorded remaining at 0.25 h, 50 µM for various compounds
State the answer as a number, implicitly in %.

COc1ccccc1CNC(=O)c1c(C)nc2cc(C)ccn12 ... 100

Input line: Please give the measured remaining at 0.25 h, 50 µM for this compound: "Cc1cc(C)c(OC(=O)c2coc(-c3ccccc3)n2)c(C)c1"
Output line: 1.4

Input line: Now the compound "CC(C)(C)c1ccccc1OC(=O)c1coc(-c2ccccc2)n1"
Output line: 0.7

Input line: Now the compound "O=C(Oc1cccc(C(F)(F)F)c1)c1coc(-c2ccccc2)n1"
Output line: 5.5

Input line: Now the compound "Cc1ccccc1COC(=O)c1coc(-c2ccccc2)n1"
Output line: 3.1

----------
Overview of recorded log10(MIC90) for various compounds
- System: Mycobacterium tuberculosis
- assay_name: Antimycobacterial activity against Mycobacterium tuberculosis H37Rv ATCC 27294 culture in GAST media after 7 days by microplate alamar blue assay
- Type: functional
- measurement_conditions: H37Rv ATCC 27294, 168 h
Could you please treat all values as log10 of MIC90 in µM?

Input line: Please give the measured log10(MIC90) for this compound: "CCOC(=O)c1nc(-c2ccccc2)oc1C"
Output line: 2.09

Input line: Now the compound "O=C(NCc1ccccc1)c1coc(-c2ccccc2)n1"
Output line: 1.77

Input line: Now the compound "Cc1ccn2c(C(=O)NCc3ccccc3)c(C)nc2c1"
Output line: 0.30

Input line: Now the compound "O=C(NC1CCCCC1)[C@@H]1CSC(c2ccccc2)=N1"
Output line: 1.75

----------
Overview of recorded remaining at 0.25 h, 20 µM for various compounds
- assay_name: Metabolic stability in Sprague-Dawley rat liver microsomes assessed as compound remaining at 20 uM after 15 mins by LC/MS analysis
- Format: ADME, Microsome
- measurement_conditions: read-out: Stability
State the answer as a number, implicitly in %.

Input line: Please give the measured remaining at 0.25 h, 20 µM for this compound: "O=C(Oc1ccccc1N1CCCC1)c1coc(-c2ccccc2)n1"
Output line: 11.2

Input line: Now the compound "CCc1ccccc1COC(=O)c1coc(-c2ccccc2)n1"
Output line: 3.2

Input line: Now the compound "Cc1ccn2c(C(=O)NCc3ccc(Cl)cc3)c(C)nc2c1"
Output line: 80.7

Input line: Now the compound "CC(C)(C)c1ccccc1OC(=O)c1coc(-c2ccccc2)n1"
Output line: 6.9

Input line: Now the compound "O=C(Oc1c(Cl)cc(Cl)cc1Cl)c1coc(-c2ccccc2)n1"
Output line: 15.5

----------
- assay_name: Chemical stability in simulated gastric fluid assessed as compound remaining at 50 uM after 15 mins by LC/MS analysis
- Format: physicochemical
- measurement_conditions: read-out: Stability
Overview of recorded remaining at 0.25 h, 50 µM for various molecules
State the answer as a number, implicitly in %.

O=C(NC1CCCCC1)c1csc(-c2ccccc2)n1 ... 3.3
O=C(OCc1ccccc1)[C@@H]1COC(c2ccccc2)=N1 ... 1.7
Cc1cccc(OC(=O)c2coc(-c3ccccc3)n2)c1C ... 2
COc1ccc(-c2nc(C(=O)OCc3ccccc3)co2)cc1 ... 2.1
Cc1ccccc1OC(=O)c1coc(-c2ccccc2)n1 ... 1.5
Cc1ccn2c(C(=O)NCc3ccc(Cl)cc3)c(C)nc2c1 ... 94.3
COc1cccc(CNC(=O)c2c(C)nc3cc(C)ccn23)c1 ... 100
O=C(Oc1ccccc1N1CCCC1)c1coc(-c2ccccc2)n1 ... 0.1

Input line: Please give the measured remaining at 0.25 h, 50 µM for this molecule: "Cc1cc(C)c(COC(=O)c2coc(-c3ccccc3)n2)c(C)c1"
Output line: 5.6

Input line: Now the molecule "Cc1ccc(COC(=O)c2coc(-c3ccccc3)n2)c(C)c1"
Output line: 1.4

Input line: Now the molecule "CCCCCCNC(=O)c1csc(-c2ccccc2)n1"
Output line: 0.1

----------
- System: Mycobacterium tuberculosis
- assay_name: Antimycobacterial activity against Mycobacterium tuberculosis H37Rv ATCC 27294 culture in GAST media after 7 days by microplate alamar blue assay
- Type: functional
- measurement_conditions: H37Rv ATCC 27294, 168 h
Overview of recorded MIC90 for various compounds

CCOC(=O)c1nn(Cc2ccccc2)cc1N ... > 128 µM
CCOC(=O)c1c(C(F)(F)F)nc2ccccn12 ... > 128 µM
CCOC(=O)c1c(C)nc2cc(C)cc(C)n12 ... > 72.9 µM
COc1ccc(C2=N[C@H](C(=O)NCc3ccc(OC)c(OC)c3)CO2)cc1 ... > 128 µM
CCOC(=O)c1n[nH]c(-c2cccc(C)c2)c1N ... > 128 µM

Next:
Input line: Please give the measured MIC90 for this compound: CCOC(=O)c1c(C)nc2c(C3CCCN3C)cccn12 (stereo not drawn)
Output line: > 64 µM

----------
- assay_name: Metabolic stability in Sprague-Dawley rat liver microsomes assessed as compound remaining at 20 uM after 15 mins by LC/MS analysis
- Assay type: ADME, Microsome
- measurement_conditions: read-out: Stability
Overview of recorded remaining at 0.25 h, 20 µM for various molecules
State the answer as a number, implicitly in %.

// worked examples, remaining at 0.25 h, 20 µM included
Cc1ccn2c(C(=O)NCc3ccccc3)c(C)nc2c1 ... 90
O=C(Oc1cccc2c1CCCC2)c1coc(-c2ccccc2)n1 ... 14.5
CC(C)(C)OC(=O)c1coc(-c2ccccc2)n1 ... 42
O=C(OCC1CC1)c1coc(-c2ccccc2)n1 ... 3.3
O=C(OC1CCCCC1)c1coc(-c2ccccc2)n1 ... 12.1

Input line: Please give the measured remaining at 0.25 h, 20 µM for this molecule: "O=C(OCc1ccccc1)[C@@H]1COC(c2ccccc2OCc2ccccc2)=N1"
Output line: 5.2

Input line: Now the molecule "COc1ccc(-c2nc(C(=O)OCc3ccccc3)co2)cc1"
Output line: 11.8

Input line: Now the molecule "CCC(=O)c1ccccc1OC(=O)c1coc(-c2ccccc2)n1"
Output line: 8.7

Input line: Now the molecule "CCCc1ccccc1OC(=O)c1coc(-c2ccccc2)n1"
Output line: 5.4
